Study System: human SGLT1 (hSGLT1) (human)
Sequence (P13866 whole entry, looked up): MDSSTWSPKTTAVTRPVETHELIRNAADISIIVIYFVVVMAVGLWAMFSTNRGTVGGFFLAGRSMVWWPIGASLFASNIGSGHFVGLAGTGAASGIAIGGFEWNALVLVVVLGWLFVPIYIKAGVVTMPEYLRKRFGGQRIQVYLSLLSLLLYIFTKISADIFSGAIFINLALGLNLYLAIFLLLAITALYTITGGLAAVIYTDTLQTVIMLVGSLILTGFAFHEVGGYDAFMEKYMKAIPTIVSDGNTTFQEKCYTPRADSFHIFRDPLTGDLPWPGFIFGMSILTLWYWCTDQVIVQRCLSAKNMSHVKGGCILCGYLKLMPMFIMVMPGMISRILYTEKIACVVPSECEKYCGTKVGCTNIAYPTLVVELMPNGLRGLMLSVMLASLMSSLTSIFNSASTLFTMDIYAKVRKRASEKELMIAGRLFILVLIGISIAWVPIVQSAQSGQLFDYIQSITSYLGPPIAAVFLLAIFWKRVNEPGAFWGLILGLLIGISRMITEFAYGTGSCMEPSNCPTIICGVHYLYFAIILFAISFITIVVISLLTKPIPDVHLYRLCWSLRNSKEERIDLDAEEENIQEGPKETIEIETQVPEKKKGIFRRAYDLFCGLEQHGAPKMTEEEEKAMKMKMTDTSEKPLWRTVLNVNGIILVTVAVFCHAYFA
Method Description: primary screen, percent of control activity; higher = less effect of the substance
Set-up: single well
Settings: 50 µM
Description: Two days before the assay, CHO‐wild type and CHO‐hSGLT1 cells were seeded in maintenance medium at 25 000 cells/well in clear‐bottom black 96‐well cell culture plates. […] Fluorescence was measured on a Tecan Infinite M200 Microplate Reader (Tecan, Männedorf, Switzerland) with excitation at 445 nm and emission at 525 nm. […] Background corrected uptake with test compound was expressed as a percentage of corrected uptake without test compound.
Screen size: about 1,900 compounds; about 40 (2%) showed an effect of 50% or more. Only a selection was taken, and strong results are over-represented in it overall.
Observation Type: NORMALIZED SGLT1 ACTIVITY (%)
Could you give me the number in %? Just the number is fine.

# query: NORMALIZED SGLT1 ACTIVITY (%) | item CCCCC(CC)CNC(=N)NC(=N)NCCCCCCNC(=N)NC(=N)NCC(CC)CCCC.Cl.Cl (stereo not drawn) | system: human SGLT1 (hSGLT1) (human)
36

Can you look up NORMALIZED SGLT1 ACTIVITY (%) on human SGLT1 (hSGLT1) (human) for Cl.N=C(N)NC(=N)Nc1ccccc1 ?
136

Form field: NORMALIZED SGLT1 ACTIVITY (%) recorded for Oc1c(Cl)c(Cl)c(Cl)c(Cl)c1Cl with human SGLT1 (hSGLT1) (human) (enter value)
622

Query NORMALIZED SGLT1 ACTIVITY (%) on human SGLT1 (hSGLT1) (human) for CCCCCCCCCc1ccc(O)cc1
107

Lab note: need NORMALIZED SGLT1 ACTIVITY (%) with human SGLT1 (hSGLT1) (human) for entry CC(CN1c2ccccc2Sc2ccccc21)N(C)C.Cl (stereo not drawn) , please look it up.
87

Short answer please: NORMALIZED SGLT1 ACTIVITY (%), human SGLT1 (hSGLT1) (human), entry CNC[C@@H](O)c1ccc(O)c(O)c1.O=C(O)C(O)C(O)C(=O)O
105

Please state recorded NORMALIZED SGLT1 ACTIVITY (%) (tested on human SGLT1 (hSGLT1) (human)) of COC(=O)[C@H]1[C@H]2C[C@H]3c4[nH]c5ccccc5c4CCN3C[C@H]2CC[C@@H]1O.Cl
110

Field: NORMALIZED SGLT1 ACTIVITY (%) (human SGLT1 (hSGLT1) (human)). Entry: CCCCCCCCCCCCC[N+](C)(C)Cc1ccccc1.[Cl-]
40

Missing value: NORMALIZED SGLT1 ACTIVITY (%), human SGLT1 (hSGLT1) (human), entry Oc1c(Cl)cc(Cl)c(Cl)c1Cc1c(O)c(Cl)cc(Cl)c1Cl . Fill in?
-43

Form field: NORMALIZED SGLT1 ACTIVITY (%) recorded for Cl.O=C(O)C1=CCNCC1 with human SGLT1 (hSGLT1) (human) (enter value)
111

Checklist item: NORMALIZED SGLT1 ACTIVITY (%) tested on human SGLT1 (hSGLT1) (human), entry COc1cc2c(cc1OC)C1C(=O)c3c(O)cc4c(c3OC1CO2)C=CC(C)(C)O4 (stereo not drawn) , value?
283

Report NORMALIZED SGLT1 ACTIVITY (%) for CC(=O)O[C@@](C)(CCC=C(C)C)C1CC=C(C)CC1 (stereo partly drawn) tested on human SGLT1 (hSGLT1) (human).
112
